Target: Hepatitis C virus serine protease, NS3/NS4A (Hepatitis C virus, UniProt D2K2A8+A3EZI9)
Sequence (D2K2A8 whole entry): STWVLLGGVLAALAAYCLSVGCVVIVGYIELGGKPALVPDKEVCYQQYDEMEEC
Sequence (A3EZI9 whole entry): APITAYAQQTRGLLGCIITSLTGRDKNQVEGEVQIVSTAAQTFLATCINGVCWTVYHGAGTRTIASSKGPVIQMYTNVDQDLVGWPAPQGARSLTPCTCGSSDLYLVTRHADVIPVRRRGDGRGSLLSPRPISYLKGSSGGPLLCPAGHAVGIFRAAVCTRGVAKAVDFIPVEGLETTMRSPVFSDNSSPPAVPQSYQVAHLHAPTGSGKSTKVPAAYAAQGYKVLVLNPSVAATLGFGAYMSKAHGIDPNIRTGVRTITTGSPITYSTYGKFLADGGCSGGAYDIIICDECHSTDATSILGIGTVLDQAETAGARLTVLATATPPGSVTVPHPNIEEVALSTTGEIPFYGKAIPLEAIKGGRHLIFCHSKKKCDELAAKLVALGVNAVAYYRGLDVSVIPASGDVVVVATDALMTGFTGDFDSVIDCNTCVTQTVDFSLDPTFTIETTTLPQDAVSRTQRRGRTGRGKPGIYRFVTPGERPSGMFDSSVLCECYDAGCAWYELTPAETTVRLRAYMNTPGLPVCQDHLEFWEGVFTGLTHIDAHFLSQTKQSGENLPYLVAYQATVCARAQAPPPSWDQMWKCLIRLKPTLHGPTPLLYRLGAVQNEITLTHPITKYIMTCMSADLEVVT
Assay: Binding inhibition of hepatitis C virus NS3.4A protease 2 using a reverse phase HPLC based assay
Assay type: protein-complex assay, Hepacivirus hominis
Would you kindly list IC50 for each of these molecules?
Numbers only, in nM.

Worked set:
[
  {
    "MOLECULE": "CCCC(NC(=O)[C@@H]1C[C@@H](OC(=O)N2CCc3ccccc3C2)CN1C(=O)[C@H](NC(=O)[C@H](NC(=O)c1cnccn1)C(C)C)C(C)C)C(=O)C(=O)N[C@@H](C)c1ccccc1 (stereo partly drawn)",
    "IC50 [nM]": 220
  },
  {
    "MOLECULE": "CCCC(NC(=O)[C@@H]1C[C@@H](OC(=O)N2CCc3ccccc3C2)CN1C(=O)[C@H](NC(=O)[C@H](NC(=O)c1cnccn1)C(C)C)C(C)C)C(=O)C(=O)NC1CC1 (stereo partly drawn)",
    "IC50 [nM]": 420
  }
]

Q) Short answer please: IC50, Hepatitis C virus serine protease, NS3/NS4A (Hepatitis C virus, UniProt D2K2A8+A3EZI9), entry CCCC(NC(=O)[C@@H]1C[C@@H](OC(=O)N2CCc3ccccc3C2)CN1C(=O)[C@H](NC(=O)[C@H](NC(=O)c1cnccn1)C(C)C)C(C)C)C(=O)C(=O)NCc1ccccc1 (stereo partly drawn)
A) 220

###

Here's what we have: Ki numbers for NS3 (Hepatitis C virus, UniProt A3EZJ3).
Where a SMILES comes first, the peptide text is derived from it. [ ]: non-standard residue; d: D form. The star is where a group is joined. Pyrazinecarbonyl = O=C(c1cnccn1)*; Hyp = O=C(O)[C@@H]1C[C@@H](O)CN1; Abu = CC[C@H](N)C(=O)O; Bn = c1ccc(C*)cc1
Answers are plain numbers, in µM.

Recorded results for 2 compounds are shown here.
[
  {
    "COMPOUND": "CCCC(NC(=O)[C@@H]1C[C@@H](OC(=O)N2CCc3ccccc3C2)CN1C(=O)[C@H](NC(=O)[C@H](NC(=O)c1cnccn1)C(C)C)C(C)C)C(=O)C(=O)NC(C)(C)C (stereo partly specified)",
    "VALUE": 6.9
  },
  {
    "COMPOUND": "CCCC(NC(=O)[C@@H]1C[C@@H](OC(=O)N2CCc3ccccc3C2)CN1C(=O)[C@H](NC(=O)[C@H](NC(=O)c1cnccn1)C(C)C)C(C)C)C(=O)C(=O)NCc1nnn[nH]1 (stereo partly specified)",
    "VALUE": 0.29
  }
]

Hey, quick one: what's Ki for each of these?
1. CCC(NC(=O)[C@@H]1C[C@@H](OCc2ccccc2)CN1C(=O)[C@H](NC(=O)[C@H](NC(=O)c1cnccn1)C(C)C)C(C)C)C(=O)C(F)(F)C(F)(F)F (stereo partly specified)
2. CC[C@H](NC(=O)[C@@H]1C[C@@H](OCc2ccccc2)CN1C(=O)[C@@H](NC(=O)[C@@H](NC(=O)c1cnccn1)C(C)C)C(C)C)C(=O)C(=O)C(C)C
3. CCCC(NC(=O)[C@@H]1C[C@@H](OC(=O)N2CCc3ccccc3C2)CN1C(=O)[C@H](NC(=O)[C@H](NC(=O)c1cnccn1)C(C)C)C(C)C)C(=O)C(=O)NC1CCC1 (stereo partly specified)

A)
1: 17.5; 2: 2.7; 3: 0.8

Dear colleague, could you please provide Ki for the compounds listed below?
1. CCCC(NC(=O)[C@@H]1C[C@@H](OC(=O)N2CCc3ccccc3C2)CN1C(=O)[C@H](NC(=O)[C@H](NC(=O)c1cnccn1)C(C)C)C(C)C)C(=O)C(=O)NC(C)C (stereo partly specified)
2. CC[C@@H](C=O)NC(=O)[C@@H]1C[C@@H](OCc2ccccc2)CN1C(=O)[C@@H](NC(=O)[C@@H](NC(=O)c1cnccn1)C(C)C)C(C)C (Pyrazinecarbonyl-VV[Hyp](Bn)[Abu]-aldehyde)
3. CCCC(NC(=O)[C@@H]1C[C@@H](OC(=O)N2CCc3ccccc3C2)CN1C(=O)[C@H](NC(=O)[C@H](NC(=O)c1cnccn1)C(C)C)C(C)C)C(=O)C(=O)NCCc1ccccc1 (stereo partly specified)
4. CC[C@H](NC(=O)[C@@H]1C[C@@H](OCc2ccccc2)CN1C(=O)[C@@H](NC(=O)[C@@H](NC(=O)c1cnccn1)C(C)C)C(C)C)C(=O)C(C)=O

A)
[0.52, 16, 0.21, 50]

###

Target: Hepatitis C virus serine protease, NS3/NS4A (Hepatitis C virus, UniProt D2K2A8+A3EZI9)
Assay: Binding inhibition of hepatitis C virus NS3.4A protease 2 using p-nitroaniline assay (pNA); <0.2 (0.10)
Assay type: protein-complex assay, Hepacivirus hominis
ATTRIBUTE_MEASURED: Ki

Q) # value lookup — system Hepatitis C virus serine protease, NS3/NS4A (Hepatitis C virus, UniProt D2K2A8+A3EZI9), readout Ki, item CCCC(NC(=O)[C@@H]1C[C@@H](OC(=O)N2CCc3ccccc3C2)CN1C(=O)[C@H](NC(=O)[C@H](NC(=O)c1cnccn1)C(C)C)C(C)C)C(=O)C(=O)N[C@@H](C)c1ccccc1 (stereo partly specified)
A) < 200 nM

###

Target: Hepatitis C virus serine protease, NS3/NS4A (Hepatitis C virus, UniProt D2K2A8+A3EZI9)
Test: Binding inhibition of hepatitis C virus NS3.4A protease 2 using p-nitroaniline assay (pNA); <0.2 (0.15)
Type: protein-complex assay, Hepacivirus hominis
I'd be grateful if you could share measured Ki for these entries.

These recorded examples may help you get a feel for the data.
[
  {
    "COMPOUND": "CCCC(NC(=O)[C@@H]1C[C@@H](OC(=O)N2CCc3ccccc3C2)CN1C(=O)[C@H](NC(=O)[C@H](NC(=O)c1cnccn1)C(C)C)C(C)C)C(=O)C(=O)NC1CC1 (stereo partly drawn)",
    "VALUE": "< 220 nM"
  },
  {
    "COMPOUND": "CCCC(NC(=O)[C@@H]1C[C@@H](OC(=O)N2CCc3ccccc3C2)CN1C(=O)[C@H](NC(=O)[C@H](NC(=O)c1cnccn1)C(C)C)C(C)C)C(=O)C(=O)NCC(=O)O (stereo partly drawn)",
    "VALUE": "< 200 nM"
  }
]

// switching to the query compound
Q) Tell me reported Ki for CCCC(NC(=O)[C@@H]1C[C@@H](OC(=O)N2CCc3ccccc3C2)CN1C(=O)[C@H](NC(=O)[C@H](NC(=O)c1cnccn1)C(C)C)C(C)C)C(=O)C(=O)NCc1ccccc1 (stereo partly drawn) , tested with Hepatitis C virus serine protease, NS3/NS4A (Hepatitis C virus, UniProt D2K2A8+A3EZI9).
A) < 200 nM

###

Target: Hepatitis C virus serine protease, NS3/NS4A (Hepatitis C virus, UniProt D2K2A8+A3EZI9)
Test: Binding inhibition of hepatitis C virus NS3.4A protease 2 using p-nitroaniline assay (pNA); <0.2 (0.18)
Assay type: protein-complex assay, Hepacivirus hominis
ATTRIBUTE_MEASURED: Ki (nM)
Give bare numbers, in nM.

Q) Reported Ki, compound CCCC(NC(=O)[C@@H]1C[C@@H](OC(=O)N2CCc3ccccc3C2)CN1C(=O)[C@H](NC(=O)[C@H](NC(=O)c1cnccn1)C(C)C)C(C)C)C(=O)C(=O)NC(C)C(=O)O (some centres not stated) : ____
A) 200

###

Target: Hepatitis C virus serine protease, NS3/NS4A (Hepatitis C virus, UniProt D2K2A8+A3EZI9)
Experiment: Binding inhibition of hepatitis C virus NS3.4A protease 2 using a reverse phase HPLC based assay
Type: protein-complex assay, Hepacivirus hominis
Give IC50 for every item shown.

[
  {
    "COMPOUND": "CCCC(NC(=O)[C@@H]1C[C@@H](OC(=O)N2CCc3ccccc3C2)CN1C(=O)[C@H](NC(=O)[C@H](NC(=O)c1cnccn1)C(C)C)C(C)C)C(=O)C(=O)NC(C)C(=O)O (some centres undefined)",
    "IC50": "130 nM"
  }
]

Hi! Can you tell me IC50 for each of these compounds?
1. CCCC(NC(=O)[C@@H]1C[C@@H](OC(=O)N2CCc3ccccc3C2)CN1C(=O)[C@H](NC(=O)[C@H](NC(=O)c1cnccn1)C(C)C)C(C)C)C(=O)C(=O)NCCc1ccccc1 (some centres undefined)
2. CCCC(NC(=O)[C@@H]1CC(OC(=O)N2CCc3ccccc3C2)CN1C(=O)[C@H](NC(=O)[C@H](NC(=O)c1cnccn1)C(C)C)C(C)C)C(=O)C(=O)c1ccccc1 (single isomer, unassigned)
3. CCCC(NC(=O)[C@@H]1C[C@@H](OC(=O)N2CCc3ccccc3C2)CN1C(=O)[C@H](NC(=O)[C@H](NC(=O)c1cnccn1)C(C)C)C(C)C)C(=O)C(=O)N[C@@H](C)C(=O)c1cccc2ccccc12 (some centres undefined)

A)
520 nM
26 nM
750 nM
